Cited source for all entries: ChEMBL document CHEMBL4622887

system: Staphylococcus aureus; assay: Antibacterial activity against methicillin-resistant Staphylococcus aureus shhs-A1 incubated for 16 hrs by broth microdilution method; format: functional; conditions: shhs-A1, 16 h

[
  {
    "smiles-data": "COc1cc(OC)c(-c2cc(OC)c(Cl)c3c2C(=O)[C@@]2(O)C(=O)c4c(O)cc(O)c(Cl)c4C(C)(C)[C@H]2C3)c(C)c1Cl",
    "MIC (µg/mL)": 3.13
  },
  {
    "smiles-data": "COc1cc(O)c(-c2cc(O)cc3cc4c(c(O)c23)C(=O)c2c(O)cc(O)cc2C4(C)C)c(C)c1Cl",
    "MIC (µg/mL)": 1.56
  },
  {
    "smiles-data": "COc1cc(C)c(-c2cc(OC)c(Cl)c3cc4c(c(O)c23)C(=O)c2c(O)cc(O)cc2C4(C)C)c(OC)c1",
    "MIC (µg/mL)": 3.13
  },
  {
    "smiles-data": "COc1cc(O)cc(C)c1-c1cc(O)c(Cl)c2cc3c(c(O)c12)C(=O)c1c(O)cc(O)cc1C3(C)C",
    "MIC (µg/mL)": 3.13
  },
  {
    "smiles-data": "COc1cc(C)c(-c2cc(OC)c(Cl)c3c2C(=O)[C@@]2(O)C(=O)c4c(O)cc(O)cc4C(C)(C)[C@H]2C3)c(O)c1",
    "MIC (µg/mL)": 6.25
  },
  {
    "smiles-data": "COc1cc(C)c(-c2cc(OC)c(Cl)c3c2C(=O)[C@@]2(O)C(=O)c4c(O)c(Cl)c(O)c(Cl)c4C(C)(C)[C@H]2C3)c(OC)c1",
    "MIC (µg/mL)": 0.2
  },
  {
    "smiles-data": "COc1cc(OC)c(-c2cc(OC)c(Cl)c3c2C(=O)[C@@]2(O)C(=O)c4c(cc(O)c(Cl)c4O)C(C)(C)[C@H]2C3)c(C)c1Cl",
    "MIC (µg/mL)": 3.13
  },
  {
    "smiles-data": "COc1cc(C)c(-c2cc(O)c(Cl)c3cc4c(c(O)c23)C(=O)c2c(O)cc(OC)cc2C4(C)C)c(OC)c1",
    "MIC (µg/mL)": 6.25
  },
  {
    "smiles-data": "COc1cc(OC)c(-c2cc(OC)c(Cl)c3c2C(=O)[C@@]2(O)C(=O)c4c(O)cc(O)cc4C(C)(C)[C@H]2C3)c(C)c1Cl",
    "MIC (µg/mL)": 25
  },
  {
    "smiles-data": "COc1cc(-c2c(O)cc(OC)c(Cl)c2C)c2c(O)c3c(cc2c1)C(C)(C)c1cc(O)cc(O)c1C3=O",
    "MIC (µg/mL)": 3.13
  },
  {
    "smiles-data": "COc1cc(O)c(-c2cc(OC)c(Cl)c3c2C(=O)[C@@]2(O)C(=O)c4c(O)cc(O)cc4C(C)(C)[C@H]2C3)c(C)c1Cl",
    "MIC (µg/mL)": 1.56
  },
  {
    "smiles-data": "CN[C@H](CC(C)C)C(=O)N[C@H]1C(=O)N[C@@H](CC(N)=O)C(=O)N[C@H]2C(=O)N[C@H]3C(=O)N[C@H](C(=O)N[C@H](C(=O)O)c4cc(O)cc(O)c4-c4cc3ccc4O)[C@H](O)c3ccc(c(Cl)c3)Oc3cc2cc(c3O[C@@H]2O[C@H](CO)[C@@H](O)[C@H](O)[C@H]2O[C@H]2C[C@](C)(N)[C@H](O)[C@H](C)O2)Oc2ccc(cc2Cl)[C@H]1O",
    "MIC (µg/mL)": 1.56
  },
  {
    "smiles-data": "COc1cc(C)c(-c2cc(OC)c(Cl)c3c2C(=O)[C@@]2(O)C(=O)c4c(O)cc(O)cc4C(C)(C)[C@H]2C3)c(OC)c1",
    "MIC (µg/mL)": 1.56
  }
]

---

system: Staphylococcus aureus; test: Antibacterial activity against methicillin-resistant Staphylococcus aureus shhs-A1 incubated for 16 hrs by broth microdilution method; type: functional; settings: shhs-A1, 16 h

[
  {
    "smiles-data": "COc1cc(C)c(-c2cc(OC)cc3cc4c(c(O)c23)C(=O)c2c(O)cc(O)cc2C4(C)C)c(OC)c1",
    "MIC": "1.56 µg/mL"
  },
  {
    "smiles-data": "COc1cc2c(c(-c3c(O)cc(OC)c(Cl)c3C)c1)C(=O)[C@@]1(O)C(=O)c3c(O)cc(O)cc3C(C)(C)[C@H]1C2",
    "MIC": "3.13 µg/mL"
  },
  {
    "smiles-data": "COc1cc(C)c(-c2cc(OC)cc3cc4c(c(O)c23)C(=O)c2c(O)cc(O)cc2C4(C)C)c(O)c1",
    "MIC": "3.13 µg/mL"
  },
  {
    "smiles-data": "COc1cc(C)c(-c2cc(OC)c(Cl)c3c2C(=O)[C@@]2(O)C(=O)c4c(O)cc(O)c(Cl)c4C(C)(C)[C@H]2C3)c(OC)c1",
    "MIC": "1.56 µg/mL"
  }
]

---

tested on: Bacillus spizizenii; experiment: Antibacterial activity against Bacillus subtilis ATCC 6633 incubated for 16 hrs by broth microdilution method; assay type: functional; details: ATCC 6633, 16 h
experimental-endpoint: MIC (µg/mL)

[
  {
    "smiles-data": "COc1cc(C)c(-c2cc(OC)c(Cl)c3cc4c(c(O)c23)C(=O)c2c(O)cc(O)cc2C4(C)C)c(OC)c1",
    "data-value": 12.5
  },
  {
    "smiles-data": "COc1cc(C)c(-c2cc(OC)c(Cl)c3c2C(=O)[C@@]2(O)C(=O)c4c(O)c(Cl)c(O)c(Cl)c4C(C)(C)[C@H]2C3)c(OC)c1",
    "data-value": 0.39
  },
  {
    "smiles-data": "COc1cc(C)c(-c2cc(OC)cc3cc4c(c(O)c23)C(=O)c2c(O)cc(O)cc2C4(C)C)c(O)c1",
    "data-value": 6.25
  },
  {
    "smiles-data": "COc1cc(O)c(-c2cc(OC)c(Cl)c3c2C(=O)[C@@]2(O)C(=O)c4c(O)cc(O)cc4C(C)(C)[C@H]2C3)c(C)c1Cl",
    "data-value": 1.56
  }
]

---

system: Staphylococcus aureus; assay: Antibacterial activity against Staphylococcus aureus ATCC 6538 incubated for 16 hrs by broth microdilution method; assay type: functional; settings: ATCC 6538, 16 h
Each record here notes measured MIC.

[
  {
    "smiles-data": "NC[C@H]1O[C@H](O[C@H]2[C@H](O)[C@@H](O[C@H]3O[C@H](CO)[C@@H](O)[C@H](N)[C@H]3O)[C@H](N)C[C@@H]2N)[C@H](O)[C@@H](O)[C@@H]1O",
    "unit-of-measure": "µg/mL",
    "MIC": 1.56
  },
  {
    "smiles-data": "COc1cc(C)c(-c2cc(OC)cc3cc4c(c(O)c23)C(=O)c2c(O)cc(O)cc2C4(C)C)c(OC)c1",
    "unit-of-measure": "µg/mL",
    "MIC": 3.13
  },
  {
    "smiles-data": "COc1cc(-c2c(O)cc(OC)c(Cl)c2C)c2c(O)c3c(cc2c1)C(C)(C)c1cc(O)cc(O)c1C3=O",
    "unit-of-measure": "µg/mL",
    "MIC": 6.25
  },
  {
    "smiles-data": "COc1cc(OC)c(-c2cc(OC)c(Cl)c3c2C(=O)[C@@]2(O)C(=O)c4c(O)cc(O)c(Cl)c4C(C)(C)[C@H]2C3)c(C)c1Cl",
    "unit-of-measure": "µg/mL",
    "MIC": 3.13
  },
  {
    "smiles-data": "COc1cc(O)c(-c2cc(OC)c(Cl)c3c2C(=O)[C@@]2(O)C(=O)c4c(O)cc(O)cc4C(C)(C)[C@H]2C3)c(C)c1Cl",
    "unit-of-measure": "µg/mL",
    "MIC": 0.39
  },
  {
    "smiles-data": "COc1cc(OC)c(-c2cc(OC)c(Cl)c3c2C(=O)[C@@]2(O)C(=O)c4c(O)cc(O)cc4C(C)(C)[C@H]2C3)c(C)c1Cl",
    "unit-of-measure": "µg/mL",
    "MIC": 6.25
  },
  {
    "smiles-data": "COc1cc2c(c(-c3c(O)cc(OC)c(Cl)c3C)c1)C(=O)[C@@]1(O)C(=O)c3c(O)cc(O)cc3C(C)(C)[C@H]1C2",
    "unit-of-measure": "µg/mL",
    "MIC": 3.13
  },
  {
    "smiles-data": "COc1cc(C)c(-c2cc(O)c(Cl)c3cc4c(c(O)c23)C(=O)c2c(O)cc(OC)cc2C4(C)C)c(OC)c1",
    "unit-of-measure": "µg/mL",
    "MIC": 6.25
  },
  {
    "smiles-data": "COc1cc(O)cc(C)c1-c1cc(O)c(Cl)c2cc3c(c(O)c12)C(=O)c1c(O)cc(O)cc1C3(C)C",
    "unit-of-measure": "µg/mL",
    "MIC": 1.56
  },
  {
    "smiles-data": "COc1cc(C)c(-c2cc(OC)cc3cc4c(c(O)c23)C(=O)c2c(O)cc(O)cc2C4(C)C)c(O)c1",
    "unit-of-measure": "µg/mL",
    "MIC": 3.13
  },
  {
    "smiles-data": "COc1cc(C)c(-c2cc(OC)c(Cl)c3c2C(=O)[C@@]2(O)C(=O)c4c(O)cc(O)cc4C(C)(C)[C@H]2C3)c(O)c1",
    "unit-of-measure": "µg/mL",
    "MIC": 6.25
  }
]
